# System: SGC7901
# Test: Cytotoxicity CCK-8 assay, SGC7901
# Type: cell-based
# Measurement conditions: Homo sapiens, SGC-7901; SGC7901
We begin with a simple list: items and their reported IC50.
Give just the numeric value; µM need not be written.

Look up and report measured IC50 for this entry: COc1cccc2c1C(=O)c1c(O)c3c(c(O)c1C2=O)C[C@@](O)(C(=O)CO)C[C@@H]3O[C@H]1C[C@H](N)[C@H](O)[C@H](C)O1 [Doxorubicin, reference compound]
0.8

Attention now turns to another entry.
Look up and report measured IC50 for this entry: CC(C)[C@@H](C)/C=C/[C@@H](C)[C@H]1CC[C@H]2C3=CC(=O)O[C@@]3(O)CC[C@]12C [Compound 33, demethylincisterol A3]
26.7
